Property: T/C; scope: individual compounds
# System: L1210 leukemia ip in BDF1 mice, survival T/C
# runDescription: NCI In Vivo Anticancer Drug Screen. Data for tumor model L1210 Leukemia (intraperitoneal) in B6D2F1 (BDF1) mice
# assaySetup: endpoint: mean survival time; dose: 200.0 mg/kg/injection; schedule: Q04DX003 (ip); vehicle: carboxymethylcellulose (CMC); higher = longer survival
Inconclusive results and toxic doses are left out.

COC(=O)c1ccccc1C(=O)c1ccccc1 | 102 % of control

Entry CCCCCCCCCC(=O)N1CCCC(C)C1 (stereo not given) has what T/C?
97 % of control

Same for CC1O/C(=N\O)C(C)O1 (stereo not given)
101 % of control

# repeat for CS(=O)(=O)OCC(=O)NCCNC(=O)COS(C)(=O)=O
119 % of control

Repeat for the following compound: CCCCCCCCCC(C)(O)C#CC(C)(O)CCCCCCCCC (stereo not given)
89 % of control

---

# Test system: L1210 leukemia ip in BDF1 mice, survival T/C
# runDescription: NCI In Vivo Anticancer Drug Screen. Data for tumor model L1210 Leukemia (intraperitoneal) in B6D2F1 (BDF1) mice
# assaySetup: endpoint: mean survival time; dose: 200.0 mg/kg/injection; schedule: Q04DX003 (ip); vehicle: Klucel (hydroxypropylcellulose) (HPC); higher = longer survival
Toxic doses and inconclusive results are not listed.
propertyMeasured: T/C

Cc1ccc(S(=O)(=O)OCC2C3C=CC(C3)C2COS(=O)(=O)c2ccc(C)cc2)cc1 (stereo not drawn) | 98 % of control
CC(=O)NC1CON(C(C)=O)C1=O (stereo not drawn) | 103 % of control
NC(=O)C(Br)c1ccccc1 (stereo not drawn) | 98 % of control

GET /values?readout=T/C&item= CCOC(=O)C(CCC(=O)O)NC(=O)OCc1ccccc1 (stereo not drawn)
93 % of control

And COc1ccc(CO)cc1OC ?
94 % of control

Another molecule to check: CC(=O)Nc1nc(-c2ccc([N+](=O)[O-])cc2)c(CCC=O)c(=O)[nH]1
98 % of control

And then CCS(=O)(=O)C1C2C=CC(O2)C1S(=O)(=O)CC (stereo not drawn) , what is it?
101 % of control

Queued: CCCCCCCCCCCC(=O)N(C)C
111 % of control

---

Items are presented alongside their recorded T/C.
# System: L1210 leukemia ip in BDF1 mice, survival T/C
# runDescription: NCI In Vivo Anticancer Drug Screen. Data for tumor model L1210 Leukemia (intraperitoneal) in B6D2F1 (BDF1) mice
# assaySetup: endpoint: mean survival time; dose: 400.0 mg/kg/injection; schedule: Q04DX002 (ip); vehicle: saline; higher = longer survival
# Procedure: The antitumor activity of compounds was measured in mice bearing transplantable tumors. Survival or tumor size were measured and the results are expressed as the measurement made in the treated group (T) divided by the measurement made in the vehicle treated control group (C). The tumor model used in this assay is L1210 Leukemia (intraperitoneal) in B6D2F1 (BDF1) mice
Inconclusive results and toxic doses are left out.

For orientation, consider the following solved cases.
O=S(=O)(O)c1ccc(Cl)c(Cl)c1 | 107 % of control
O=C(NCCCl)OCCCl | 94 % of control

Form field: reported T/C of COC(=O)C(C)C(=O)O (stereo not drawn)
90 % of control

Note, next up: C[S+](C)(=O)CCCS(=O)(=O)[O-]
92 % of control

---

Measured T/C, listed per entry for reference.
# Tested on: L1210 leukemia ip in BDF1 mice, survival T/C
# runDescription: NCI In Vivo Anticancer Drug Screen. Data for tumor model L1210 Leukemia (intraperitoneal) in B6D2F1 (BDF1) mice
# assaySetup: endpoint: mean survival time; dose: 200.0 mg/kg/injection; schedule: Q01DX009 (ip); vehicle: Klucel (hydroxypropylcellulose) (HPC); higher = longer survival
Inconclusive results and toxic doses are left out.

Clc1cc(Cl)c(I)c(Cl)c1 | 95 % of control
Cc1ccccc1-c1c2ccccc2c2ccccc2[n+]1[O-] | 108 % of control
Cc1ccc(C(=O)C(c2ccccc2)C(Cl)c2ccccc2)cc1 (configuration not stated) | 104 % of control

What does the record list as T/C for CSc1cccc(N2C(=O)CC(Sc3ccccc3N)C2=O)c1 (configuration not stated) ?
95 % of control

Next entry: CCOC(=O)C(C(=O)OCC)C1c2ccccc2NC(=O)c2ccccc21 (configuration not stated)
100 % of control

Subsequent entry: Brc1cc(Br)c2[nH]c3c(Br)cc(Br)cc3c2c1
102 % of control

Input Nc1ccc(S(=O)(=O)Nc2ccc(I)cc2)cc1
96 % of control

---

# System: L1210 leukemia ip in BDF1 mice, survival T/C
# runDescription: NCI In Vivo Anticancer Drug Screen. Data for tumor model L1210 Leukemia (intraperitoneal) in B6D2F1 (BDF1) mice
# assaySetup: endpoint: mean survival time; dose: 100.0 mg/kg/injection; schedule: Q01DX009 (ip); vehicle: acetone; higher = longer survival
Inconclusive results and toxic doses are left out.
Listed here are compounds together with their documented T/C.

Solved cases below.
O=S(=O)(O)CC1(CS(=O)(=O)O)COC1 | 118 % of control
Cc1cc(Cl)c(C)c(Cl)c1Cl | 92 % of control
Cc1cc2c(cc1C)N(C(=O)CN1CCOCC1)CC(=O)N2 | 88 % of control

Shift focus to the following entry.
# T/C lookup, item CC1CC(C)(C)OC(C(C)C)O1 (centres undefined)
97 % of control

---

# Test system: L1210 leukemia ip in BDF1 mice, survival T/C
# runDescription: NCI In Vivo Anticancer Drug Screen. Data for tumor model L1210 Leukemia (intraperitoneal) in B6D2F1 (BDF1) mice
# assaySetup: endpoint: mean survival time; dose: 200.0 mg/kg/injection; schedule: Q04DX003 (ip); vehicle: acetone; higher = longer survival
Toxic doses and inconclusive results are not listed.
Listed here: items and their measured T/C.

Some compounds with known T/C results, for comparison:
Clc1ccccc1N=C1NN(c2c3ccccc3nc3ccccc23)Nc2ccccc21 | 90 % of control
ClC12CC3CC(CC(C3)C1)C2 | 98 % of control
O=C1C(Cl)CCCCC1Cl (stereo not given) | 111 % of control
O=C(NS(=O)(=O)c1ccc(Cl)cc1)c1ccccc1 | 107 % of control

From here, focus on the item given below.
Observed T/C on L1210 leukemia ip in BDF1 mice, survival T/C for O=C(NNC1CCCCC1)c1ccccc1 , please.
109 % of control

---

# Test system: L1210 leukemia ip in BDF1 mice, survival T/C
# runDescription: NCI In Vivo Anticancer Drug Screen. Data for tumor model L1210 Leukemia (intraperitoneal) in B6D2F1 (BDF1) mice
# assaySetup: endpoint: mean survival time; dose: 100.0 mg/kg/injection; schedule: Q01DX009 (ip); vehicle: Klucel (hydroxypropylcellulose) (HPC); higher = longer survival
Inconclusive results and toxic doses are left out.
propertyMeasured: T/C

CC(=O)N(c1ccccc1)c1nc(/C=N\NC(N)=S)cs1 | 105 % of control
CC(=O)Nc1nc(-c2ccc([N+](=O)[O-])cc2)c(CCC=O)c(=O)[nH]1 | 88 % of control
N#CC(C#N)=Cc1ccc(Cl)c(Cl)c1 | 92 % of control
COc1ccccc1NC(=O)NC1CCCCC1 | 100 % of control
Cc1cccc(C)c1NC(=O)Nc1ncccn1 | 103 % of control
Cc1cccc(NC(=O)Nc2ccccc2)c1C | 104 % of control
c1cncc(SC23CC4CC(CC(C4)C2)C3)c1 | 106 % of control
O=c1oc(-c2ccco2)nc2ccccc12 | 101 % of control
Nn1c(=O)[nH][nH]c1=O | 113 % of control
Cc1cc(Cl)ccc1NC(=O)Nc1cccc(F)c1 | 88 % of control

What value of T/C on L1210 leukemia ip in BDF1 mice, survival T/C does CCCCCCc1c(C(OC)OC)[nH]c(=S)[nH]c1=O have?
91 % of control

Next molecule up: COc1ccc(C(=O)OCCN(CCN(CCOC(=O)c2ccc(OC)cc2)C(=O)c2ccc(OC)cc2)C(=O)c2ccc(OC)cc2)cc1
89 % of control

# repeat for Cc1cc(OC(=O)Nc2cccc(Cl)c2Cl)c(C(C)C)cc1Cl
97 % of control

Could you do the same for COc1ccc(CO)cc1OC , please?
101 % of control

Could you do the same for CCC1CCCCN1CCNc1ccc(CO)c2sc3ccccc3c(=O)c12 (stereo unspecified) , please?
115 % of control

---

# Tested on: L1210 leukemia ip in BDF1 mice, survival T/C
# runDescription: NCI In Vivo Anticancer Drug Screen. Data for tumor model L1210 Leukemia (intraperitoneal) in B6D2F1 (BDF1) mice
# assaySetup: endpoint: mean survival time; dose: 100.0 mg/kg/injection; schedule: Q01DX001 (ip); vehicle: Klucel (hydroxypropylcellulose) (HPC); higher = longer survival
Toxic doses and inconclusive results are not listed.
Quick reference: T/C of the listed items.

Sample answers from the record:
c1ccc2c(c1)C(=C1c3ccccc3-c3ccccc31)c1ccccc1-2 | 104 % of control
OC1/C(=C/c2ccco2)CCC2CCCCC21 (stereo not given) | 101 % of control
NC(=O)N/N=C1/CCCC(C(=O)O)C1 (stereo not given) | 105 % of control
Cc1ccc(C2C(C(=O)c3ccccc3)N2Cc2ccccc2)cc1 (stereo not given) | 98 % of control
CCOC(=O)c1[nH]c(C)c(/C=C/C(=O)O)c1C | 106 % of control
CCCCCCCCCCCCCCSCCCCCCSCCCCCCCCCCCCCC | 98 % of control
O=CC1c2ccccc2C(C=O)c2c1ccc1ccccc21 (stereo not given) | 91 % of control
NC(=O)c1cc(NCCO)c([N+](=O)[O-])cc1[N+](=O)[O-] | 104 % of control

// lookup T/C for CC1=C(C)CC(C(=O)c2ccccc2)=C(C(=O)c2ccccc2)C1
95 % of control
